# Tested on: ATP;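 note: ATP exposure 15 min at 22 °C before imaging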
# ASSAY_INFO: switch fluorescence ratio, 500 uM ATP over buffer (Cy3 cluster intensity, sum of 5 cycles each) (fold (ratio)); higher = stronger signal-on switching upon ATP binding; sequences stand for … in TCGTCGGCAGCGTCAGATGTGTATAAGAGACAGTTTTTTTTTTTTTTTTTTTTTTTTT…TC
# TEST_CONDITIONS: aptamer strand: ATP DNA aptamer (quencher-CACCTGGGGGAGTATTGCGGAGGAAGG + anchor), 100 nM annealed; ATP concentration: 500 uM
Answer false if switch fluorescence ratio is under 1, and true if it is 1 or more.

# count of solved cases: 5
AATAGAATAC
true
AAGAAAGGGA
true
AGCATGAGAT
true
ATTTGCTCGG
true
ATGCACGTAT
true

Q: switch fluorescence ratio >= 1 for CGTGTGTGTA ?
Result: true

Q: switch fluorescence ratio >= 1 for TTGGTGTGTG ?
Result: false

Q: switch fluorescence ratio >= 1 for GTTATGCCGG ?
Result: false

Q: switch fluorescence ratio >= 1 for TAGGAGCAGG ?
Result: true

###

# switch fluorescence ratio annotations
# System: ATP;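 note: ATP exposure 15 min at 22 °C before imaging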
# ASSAY_INFO: switch fluorescence ratio, 500 uM ATP over buffer (Cy3 cluster intensity, sum of 5 cycles each) (fold (ratio)); higher = stronger signal-on switching upon ATP binding; sequences stand for … in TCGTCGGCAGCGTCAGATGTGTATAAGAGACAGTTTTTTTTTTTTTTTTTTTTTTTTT…TC
# TEST_CONDITIONS: aptamer strand: ATP DNA aptamer (quencher-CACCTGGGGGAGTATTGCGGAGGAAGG + anchor), 100 nM annealed; ATP concentration: 500 uM
Form: value (number only, do not type unit).

Here's what some known entries look like.
CGCATTGTGG
1.02
GAGGGGTCCA
0.974

// moving on: another record for switch fluorescence ratio
Q: Respond only with switch fluorescence ratio recorded for GATAAATGTT
Result: 0.985

###

# Tested on: ATP;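 note: ATP exposure 15 min at 22 °C before imaging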
# ASSAY_INFO: switch fluorescence ratio, 500 uM ATP over buffer (Cy3 cluster intensity, sum of 5 cycles each) (fold (ratio)); higher = stronger signal-on switching upon ATP binding; sequences stand for … in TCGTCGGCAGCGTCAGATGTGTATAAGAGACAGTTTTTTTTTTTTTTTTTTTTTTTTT…TC
# TEST_CONDITIONS: aptamer strand: ATP DNA aptamer (quencher-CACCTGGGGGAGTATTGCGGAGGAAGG + anchor), 100 nM annealed; ATP concentration: 500 uM
# switch fluorescence ratio annotations
Form: value (number only, do not type unit).

Here's what some known entries look like.
TATGGAGATA
0.999
AGTGAGGGGA
0.975
CTGAAGTCTG
1.02
CTGGTCGTGC
0.999
ATTAGTGTCA
1

Q: Respond only with switch fluorescence ratio recorded for AAGACGTTTT
Result: 1.01

Q: Respond only with switch fluorescence ratio recorded for TTTTTAGACG
Result: 0.981

Q: Respond only with switch fluorescence ratio recorded for AGAAGGGTTA
Result: 1.01

###

# switch fluorescence ratio annotations
# Test system: ATP;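 note: ATP exposure 15 min at 22 °C before imaging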
# ASSAY_INFO: switch fluorescence ratio, 500 uM ATP over buffer (Cy3 cluster intensity, sum of 5 cycles each) (fold (ratio)); higher = stronger signal-on switching upon ATP binding; sequences stand for … in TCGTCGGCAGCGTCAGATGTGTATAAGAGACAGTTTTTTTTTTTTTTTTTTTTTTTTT…TC
# TEST_CONDITIONS: aptamer strand: ATP DNA aptamer (quencher-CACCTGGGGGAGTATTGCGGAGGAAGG + anchor), 100 nM annealed; ATP concentration: 500 uM
Form: value (number only, do not type unit).

Here's what some known entries look like.
CTCATATTCA
1.02
TTATTTTTCT
1.01
TGGATAGAGT
0.985
GGGGCTCAGA
0.993
CGCTATGTTT
1.02

Q: Respond only with switch fluorescence ratio recorded for AGCATTGAGG
Result: 0.984

Q: Respond only with switch fluorescence ratio recorded for ATGTTTCTGA
Result: 0.985

Q: Respond only with switch fluorescence ratio recorded for TCGAGTTG
Result: 0.997

Q: Respond only with switch fluorescence ratio recorded for TAATACGTTT
Result: 0.986

Q: Respond only with switch fluorescence ratio recorded for TGGGTGGTTG
Result: 1.02

Q: Respond only with switch fluorescence ratio recorded for GTTTTCGGAT
Result: 0.983

###

# System: ATP;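 note: ATP exposure 15 min at 22 °C before imaging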
# ASSAY_INFO: switch fluorescence ratio, 500 uM ATP over buffer (Cy3 cluster intensity, sum of 5 cycles each) (fold (ratio)); higher = stronger signal-on switching upon ATP binding; sequences stand for … in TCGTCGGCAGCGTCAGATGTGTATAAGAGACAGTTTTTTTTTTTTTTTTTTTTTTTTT…TC
# TEST_CONDITIONS: aptamer strand: ATP DNA aptamer (quencher-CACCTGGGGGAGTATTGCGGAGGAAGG + anchor), 100 nM annealed; ATP concentration: 500 uM
MEASUREMENT_TYPE: switch fluorescence ratio
Form: value (number only, do not type unit).

Here's what some known entries look like.
AAGTGGGGCG
1.02
TTCGGCTTGG
0.984
TGCGGGCTAG
1.01

Q: Respond only with switch fluorescence ratio recorded for TAGGGAGGGA
Result: 0.98

Q: Respond only with switch fluorescence ratio recorded for TGGGCAAGGA
Result: 1.02

Q: Respond only with switch fluorescence ratio recorded for TTTTGAAATT
Result: 1

Q: Respond only with switch fluorescence ratio recorded for ATTTTTACGG
Result: 1.01

Q: Respond only with switch fluorescence ratio recorded for CGTTTACGCC
Result: 1

Q: Respond only with switch fluorescence ratio recorded for AATTTCTCGT
Result: 0.996

Q: Respond only with switch fluorescence ratio recorded for CAAATGTGCT
Result: 0.986

Q: Respond only with switch fluorescence ratio recorded for GAAAAGCAGG
Result: 0.989

Q: Respond only with switch fluorescence ratio recorded for AGGCTATTTC
Result: 0.994

Q: Respond only with switch fluorescence ratio recorded for TTCGATAAGA
Result: 0.999

Q: Respond only with switch fluorescence ratio recorded for GGTAAAGGGA
Result: 1.01

Q: Respond only with switch fluorescence ratio recorded for CGATTGTATG
Result: 0.992

###

# System: ATP;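 note: ATP exposure 15 min at 22 °C before imaging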
# ASSAY_INFO: switch fluorescence ratio, 500 uM ATP over buffer (Cy3 cluster intensity, sum of 5 cycles each) (fold (ratio)); higher = stronger signal-on switching upon ATP binding; sequences stand for … in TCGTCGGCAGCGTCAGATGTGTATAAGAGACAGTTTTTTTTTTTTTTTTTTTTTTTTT…TC
# TEST_CONDITIONS: aptamer strand: ATP DNA aptamer (quencher-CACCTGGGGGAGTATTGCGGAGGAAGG + anchor), 100 nM annealed; ATP concentration: 500 uM
# switch fluorescence ratio annotations
Form: value (number only, do not type unit).

Here's what some known entries look like.
CGGGTTCCGA
0.998
CGTATAAAAA
0.971
AATGTTCACG
1.02
AAGGGGCAGC
0.99

// moving on: another record for switch fluorescence ratio
Q: Respond only with switch fluorescence ratio recorded for TTCTGGGGGG
Result: 0.991

###

# Tested on: ATP;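 note: ATP exposure 15 min at 22 °C before imaging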
# ASSAY_INFO: switch fluorescence ratio, 500 uM ATP over buffer (Cy3 cluster intensity, sum of 5 cycles each) (fold (ratio)); higher = stronger signal-on switching upon ATP binding; sequences stand for … in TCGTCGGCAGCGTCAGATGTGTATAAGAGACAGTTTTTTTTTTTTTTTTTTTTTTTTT…TC
# TEST_CONDITIONS: aptamer strand: ATP DNA aptamer (quencher-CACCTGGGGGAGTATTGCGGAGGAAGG + anchor), 100 nM annealed; ATP concentration: 500 uM
MEASUREMENT_TYPE: switch fluorescence ratio
Form: value (number only, do not type unit).

CACTGATGCC
1.04

Q: Respond only with switch fluorescence ratio recorded for AAAAAGTCTC
Result: 0.989

Q: Respond only with switch fluorescence ratio recorded for CATGGCAACG
Result: 0.993

Q: Respond only with switch fluorescence ratio recorded for TCGAGGAAGT
Result: 0.999

Q: Respond only with switch fluorescence ratio recorded for CCCTAGGGTT
Result: 1.44

Q: Respond only with switch fluorescence ratio recorded for TATTTAAGTT
Result: 1.03

Q: Respond only with switch fluorescence ratio recorded for AAGTAGGCTC
Result: 0.991

Q: Respond only with switch fluorescence ratio recorded for TCTTGCCCTG
Result: 0.977

Q: Respond only with switch fluorescence ratio recorded for TTTGGACATC
Result: 1.02

###

# switch fluorescence ratio annotations
# Tested on: ATP;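 note: ATP exposure 15 min at 22 °C before imaging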
# ASSAY_INFO: switch fluorescence ratio, 500 uM ATP over buffer (Cy3 cluster intensity, sum of 5 cycles each) (fold (ratio)); higher = stronger signal-on switching upon ATP binding; sequences stand for … in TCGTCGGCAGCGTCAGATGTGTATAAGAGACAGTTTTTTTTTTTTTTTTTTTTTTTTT…TC
# TEST_CONDITIONS: aptamer strand: ATP DNA aptamer (quencher-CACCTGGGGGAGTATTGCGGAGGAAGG + anchor), 100 nM annealed; ATP concentration: 500 uM
Form: value (number only, do not type unit).

Here's what some known entries look like.
TGCCTTATGG
0.983
ACAGCAGCGG
1.05
TCGGGAGGCT
1
ACTATTGGTA
1.03
GGTCTGGGCT
0.976

Q: Respond only with switch fluorescence ratio recorded for GTTTAACGGT
Result: 1

Q: Respond only with switch fluorescence ratio recorded for TAAGCGGCGA
Result: 0.973

Q: Respond only with switch fluorescence ratio recorded for GCCGGAGTTA
Result: 1.06

Q: Respond only with switch fluorescence ratio recorded for CTATCATCAT
Result: 0.998

Q: Respond only with switch fluorescence ratio recorded for TTAGGGTGGT
Result: 0.99
